# tgt: Mitogen-activated protein kinase 8 (Homo sapiens)
# protocol_description: Inhibition of JNK1 (unknown origin)
Please provide measured IC50 for the entries that follow.

Here are 8 compounds together with their reported answers.
Cn1c(=O)c(Oc2c(Cl)cccc2Cl)cc2cnc(N3CCC(O)CC3)nc21	> 23 µM
Cn1c(=O)c(Oc2c(Cl)cccc2Cl)cc2cnc(N3CCCCC3CO)nc21 (stereo not given)	> 23 µM
CN(C)CCNc1ncc2cc(Oc3ccc(F)cc3F)c(=O)n(C)c2n1	> 23 µM
CC(C)Nc1ncc2cc(Oc3ccc(F)cc3F)c(=O)n(C)c2n1	4.22 µM
Cn1c(=O)c(Oc2ccc(F)cc2F)cc2cnc(NCc3cccc(C(F)(F)F)c3)nc21	> 23 µM
Cn1c(=O)c(Oc2ccc(F)cc2F)cc2cnc(NC3CCNCC3)nc21	10.9 µM
Cn1c(=O)c(Oc2ccc(F)cc2F)cc2cnc(N3CCCC(O)C3)nc21 (stereo not given)	> 23 µM
Cn1c(=O)c(Oc2c(Cl)cccc2Cl)cc2cnc(N3CCCC(CO)C3)nc21 (stereo not given)	> 23 µM

Parameter requested: IC50. Apply to each item below.
1. Cn1c(=O)c(Oc2ccc(F)cc2F)cc2cnc(N3CCC(CO)CC3)nc21
2. Cn1c(=O)c(Oc2ccc(F)cc2F)cc2cnc(NCCN3CCOCC3)nc21

A:
1: > 23 µM; 2: > 23 µM

---

# tgt: Hepatocyte growth factor receptor (Homo sapiens) (UniProt P08581)
# Sequence (P08581 whole entry): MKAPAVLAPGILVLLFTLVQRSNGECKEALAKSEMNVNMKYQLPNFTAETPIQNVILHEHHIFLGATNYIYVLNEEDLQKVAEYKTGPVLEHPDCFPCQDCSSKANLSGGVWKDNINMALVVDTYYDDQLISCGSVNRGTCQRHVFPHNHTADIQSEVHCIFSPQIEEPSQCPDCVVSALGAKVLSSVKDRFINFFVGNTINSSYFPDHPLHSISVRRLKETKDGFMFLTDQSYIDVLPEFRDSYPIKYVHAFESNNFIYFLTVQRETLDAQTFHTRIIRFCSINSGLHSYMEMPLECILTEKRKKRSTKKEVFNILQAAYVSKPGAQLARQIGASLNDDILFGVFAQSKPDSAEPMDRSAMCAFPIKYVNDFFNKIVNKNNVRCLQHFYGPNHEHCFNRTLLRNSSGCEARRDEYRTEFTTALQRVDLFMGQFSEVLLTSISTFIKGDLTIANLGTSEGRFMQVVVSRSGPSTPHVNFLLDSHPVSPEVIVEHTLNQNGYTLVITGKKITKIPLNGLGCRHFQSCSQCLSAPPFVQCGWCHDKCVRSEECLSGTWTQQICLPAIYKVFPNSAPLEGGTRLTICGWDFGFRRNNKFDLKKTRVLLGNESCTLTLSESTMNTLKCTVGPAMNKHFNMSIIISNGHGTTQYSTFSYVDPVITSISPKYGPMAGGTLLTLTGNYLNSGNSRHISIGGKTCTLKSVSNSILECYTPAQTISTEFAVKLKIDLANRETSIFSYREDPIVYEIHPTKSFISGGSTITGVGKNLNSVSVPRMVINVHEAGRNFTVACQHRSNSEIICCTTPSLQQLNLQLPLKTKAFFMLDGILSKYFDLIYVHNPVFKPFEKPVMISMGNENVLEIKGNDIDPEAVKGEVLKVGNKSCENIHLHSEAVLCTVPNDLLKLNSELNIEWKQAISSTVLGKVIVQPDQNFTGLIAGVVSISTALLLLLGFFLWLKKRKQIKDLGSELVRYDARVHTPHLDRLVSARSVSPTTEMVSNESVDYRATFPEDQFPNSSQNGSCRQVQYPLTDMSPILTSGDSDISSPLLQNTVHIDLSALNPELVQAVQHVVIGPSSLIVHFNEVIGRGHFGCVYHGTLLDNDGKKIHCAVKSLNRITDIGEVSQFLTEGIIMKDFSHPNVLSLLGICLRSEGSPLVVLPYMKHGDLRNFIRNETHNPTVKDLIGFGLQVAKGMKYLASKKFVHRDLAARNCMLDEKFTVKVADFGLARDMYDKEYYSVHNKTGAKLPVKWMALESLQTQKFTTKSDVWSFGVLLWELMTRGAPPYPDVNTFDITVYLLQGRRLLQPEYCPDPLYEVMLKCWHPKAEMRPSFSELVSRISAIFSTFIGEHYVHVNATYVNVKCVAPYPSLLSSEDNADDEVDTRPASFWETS
# protocol_description: Inhibition of cMET (unknown origin) at 10 uM
Please provide measured inhibition for the entries that follow.
Answers are plain numbers, in %.

Cn1c(=O)c(Oc2c(Cl)cccc2Cl)cc2cnc(NC3CCOCC3)nc21	1
CN1CCN(c2ccc(Nc3ncc4cc(Oc5ccc(F)cc5F)c(=O)n(C)c4n3)cc2)CC1	0
Cn1c(=O)c(Oc2ccc(F)cc2F)cc2cnc(Nc3ccc(N4CCCCC4)cc3)nc21	8
CN1CCN(CCCNc2ncc3cc(Oc4ccc(F)cc4F)c(=O)n(C)c3n2)CC1	0
CN(C)CCNc1ncc2cc(Oc3ccc(F)cc3F)c(=O)n(C)c2n1	0

Parameter requested: inhibition. Apply to each item below.
1. Cn1c(=O)c(Oc2ccc(F)cc2F)cc2cnc(NCCc3ccccn3)nc21
2. CN1CCN(c2ccc(Nc3ncc4cc(Oc5c(Cl)cccc5Cl)c(=O)n(C)c4n3)cc2)CC1
3. Cn1c(=O)c(Oc2ccc(F)cc2F)cc2cnc(Nc3ccc(N4CCC(O)CC4)cc3)nc21

A:
1: 5; 2: 4; 3: 11

Q: Lab note: record inhibition of `Cn1c(=O)c(Oc2ccc(F)cc2F)cc2cnc(NC3CCN(S(C)(=O)=O)CC3)nc21` tested on Hepatocyte growth factor receptor (Homo sapiens) (UniProt P08581).
A: 0

---

Please provide measured inhibition for the entries that follow.
# tgt: Serine/threonine-protein kinase pim-1 (Homo sapiens) (UniProt P11309)
# Sequence (P11309 whole entry, looked up): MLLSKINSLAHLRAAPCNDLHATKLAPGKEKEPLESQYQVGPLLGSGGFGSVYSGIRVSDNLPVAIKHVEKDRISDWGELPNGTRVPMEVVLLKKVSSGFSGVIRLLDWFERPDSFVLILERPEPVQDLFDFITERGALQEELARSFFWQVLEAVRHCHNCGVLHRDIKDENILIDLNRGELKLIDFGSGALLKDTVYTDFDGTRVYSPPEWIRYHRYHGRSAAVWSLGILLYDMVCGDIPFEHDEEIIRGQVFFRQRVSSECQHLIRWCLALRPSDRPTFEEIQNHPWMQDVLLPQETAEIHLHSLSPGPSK
# protocol_description: Inhibition of PIM1 (unknown origin) at 10 uM
One number for each entry, in %.

Here are 3 compounds together with their reported answers.
Cn1c(=O)c(Oc2c(Cl)cccc2Cl)cc2cnc(NC3CCOCC3)nc21	0
Cn1c(=O)c(Oc2ccc(F)cc2F)cc2cnc(Nc3ccc(N4CCCCC4)cc3)nc21	24
CN(C)CCNc1ncc2cc(Oc3ccc(F)cc3F)c(=O)n(C)c2n1	1

Then this compound:
Q: Name the recorded inhibition of the compound listed here: `CN1CCN(c2ccc(Nc3ncc4cc(Oc5c(Cl)cccc5Cl)c(=O)n(C)c4n3)cc2)CC1`
A: 13

---

Please provide measured pIC50 for the entries that follow.
# tgt: Mitogen-activated protein kinase 8 (Homo sapiens, UniProt P45983)
# Sequence (P45983 whole entry): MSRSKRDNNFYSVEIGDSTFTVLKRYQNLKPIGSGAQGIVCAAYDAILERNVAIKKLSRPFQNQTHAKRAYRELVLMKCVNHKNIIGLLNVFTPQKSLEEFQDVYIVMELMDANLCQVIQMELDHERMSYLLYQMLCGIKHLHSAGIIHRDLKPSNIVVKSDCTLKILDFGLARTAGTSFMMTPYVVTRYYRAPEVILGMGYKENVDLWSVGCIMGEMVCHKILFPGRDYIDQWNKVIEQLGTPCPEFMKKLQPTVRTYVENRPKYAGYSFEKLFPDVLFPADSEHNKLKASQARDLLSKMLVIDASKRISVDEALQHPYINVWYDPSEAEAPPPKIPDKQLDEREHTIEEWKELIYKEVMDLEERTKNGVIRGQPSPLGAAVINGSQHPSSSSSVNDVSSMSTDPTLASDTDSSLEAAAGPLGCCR
# protocol_description: Inhibition of JNK1 (unknown origin)
One number for each entry, as −log10 of the molar value.

Cn1c(=O)c(Oc2ccc(F)cc2F)cc2cnc(NC3CCCC3)nc21	5.23
Cn1c(=O)c(Oc2ccc(F)cc2F)cc2cnc(NCCNS(C)(=O)=O)nc21	4.72
Cn1c(=O)c(Oc2c(Cl)cccc2Cl)cc2cnc(NCCN3CCOCC3)nc21	4.57
NC(=O)c1ccccc1Nc1ccnc(Nc2cccc(O)c2)n1	6.77
CN1CCN(CCCNc2ncc3cc(Oc4ccc(F)cc4F)c(=O)n(C)c3n2)CC1	4.72
Cn1c(=O)c(Oc2ccc(F)cc2F)cc2cnc(NC3CCCCCC3)nc21	5.17
Cn1c(=O)c(Oc2ccc(F)cc2F)cc2cnc(NC3CCCCC3)nc21	4.79
Cn1c(=O)c(Oc2ccc(F)cc2F)cc2cnc(NC3CCN(S(C)(=O)=O)CC3)nc21	6.19

Parameter requested: pIC50. Apply to each item below.
1. Cn1c(=O)c(Oc2ccc(F)cc2F)cc2cnc(NC3CC3)nc21
2. CN1CCN(c2ccc(Nc3ncc4cc(Oc5ccc(F)cc5F)c(=O)n(C)c4n3)cc2)CC1
3. Cn1c(=O)c(Oc2c(Cl)cccc2Cl)cc2cnc(NC3CCOCC3)nc21
4. Cn1c(=O)c(Oc2ccc(F)cc2F)cc2cnc(NCCc3ccccn3)nc21

A:
1. 5.14
2. 5.48
3. 5.61
4. 5.17

---

Please provide measured inhibition for the entries that follow.
# tgt: Aurora kinase A (Homo sapiens) (UniProt O14965)
# Sequence (O14965 whole entry): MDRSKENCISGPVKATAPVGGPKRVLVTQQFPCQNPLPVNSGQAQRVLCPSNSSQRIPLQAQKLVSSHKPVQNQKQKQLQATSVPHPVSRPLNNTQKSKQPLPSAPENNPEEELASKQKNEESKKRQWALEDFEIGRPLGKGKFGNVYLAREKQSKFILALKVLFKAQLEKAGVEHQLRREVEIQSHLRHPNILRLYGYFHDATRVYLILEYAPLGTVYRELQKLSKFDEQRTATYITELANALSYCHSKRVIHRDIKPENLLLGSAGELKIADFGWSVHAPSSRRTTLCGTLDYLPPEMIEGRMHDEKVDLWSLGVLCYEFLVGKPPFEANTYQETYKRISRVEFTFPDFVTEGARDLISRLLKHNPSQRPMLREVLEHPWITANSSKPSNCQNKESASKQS
# protocol_description: Inhibition of AurA (unknown origin) at 10 uM
The number alone won't do; follow it with the unit.

Here are 2 molecules together with their reported answers.
CN1CCN(c2ccc(Nc3ncc4cc(Oc5ccc(F)cc5F)c(=O)n(C)c4n3)cc2)CC1	54%
CN1CCN(c2ccc(Nc3ncc4cc(Oc5c(Cl)cccc5Cl)c(=O)n(C)c4n3)cc2)CC1	12%

Parameter requested: inhibition. Apply to each item below.
1. Cn1c(=O)c(Oc2ccc(F)cc2F)cc2cnc(Nc3ccc(N4CCCCC4)cc3)nc21
2. Cn1c(=O)c(Oc2ccc(F)cc2F)cc2cnc(NC3CCN(S(C)(=O)=O)CC3)nc21
3. CN1CCN(CCCNc2ncc3cc(Oc4ccc(F)cc4F)c(=O)n(C)c3n2)CC1
4. CN(C)CCNc1ncc2cc(Oc3ccc(F)cc3F)c(=O)n(C)c2n1
5. Cn1c(=O)c(Oc2ccc(F)cc2F)cc2cnc(Nc3ccc(N4CCC(O)CC4)cc3)nc21

A:
1: 14%; 2: 32%; 3: 6%; 4: 7%; 5: 66%

Parameter requested: inhibition. Apply to each item below.
1. Cn1c(=O)c(Oc2ccc(F)cc2F)cc2cnc(NCCc3ccccn3)nc21
2. Cn1c(=O)c(Oc2c(Cl)cccc2Cl)cc2cnc(NC3CCOCC3)nc21

A:
["4%", "3%"]

---

# tgt: Serine/threonine-protein kinase PAK 1 (Homo sapiens)
# protocol_description: Inhibition of PAK1 (unknown origin) at 10 uM
property: inhibition
The number alone won't do; follow it with the unit.

Parameter requested: inhibition. Apply to each item below.
1. Cn1c(=O)c(Oc2ccc(F)cc2F)cc2cnc(Nc3ccc(N4CCC(O)CC4)cc3)nc21
2. CN1CCN(CCCNc2ncc3cc(Oc4ccc(F)cc4F)c(=O)n(C)c3n2)CC1

A:
1. 6%
2. 0%

Parameter requested: inhibition. Apply to each item below.
1. Cn1c(=O)c(Oc2ccc(F)cc2F)cc2cnc(Nc3ccc(N4CCCCC4)cc3)nc21
2. CN1CCN(c2ccc(Nc3ncc4cc(Oc5c(Cl)cccc5Cl)c(=O)n(C)c4n3)cc2)CC1
3. CN(C)CCNc1ncc2cc(Oc3ccc(F)cc3F)c(=O)n(C)c2n1
4. Cn1c(=O)c(Oc2c(Cl)cccc2Cl)cc2cnc(NC3CCOCC3)nc21

A:
["3%", "4%", "0%", "0%"]

Parameter requested: inhibition. Apply to each item below.
1. CN1CCN(c2ccc(Nc3ncc4cc(Oc5ccc(F)cc5F)c(=O)n(C)c4n3)cc2)CC1
2. Cn1c(=O)c(Oc2ccc(F)cc2F)cc2cnc(NC3CCN(S(C)(=O)=O)CC3)nc21

A:
["6%", "8%"]

Q: Name the recorded inhibition of the compound listed here: `Cn1c(=O)c(Oc2ccc(F)cc2F)cc2cnc(NCCc3ccccn3)nc21`
A: 0%

---

# tgt: Mitogen-activated protein kinase 8 (Homo sapiens, UniProt P45983)
# protocol_description: Inhibition of JNK1 (unknown origin)
property: pIC50
Numbers only, as −log10 of the molar value.

Cn1c(=O)c(Oc2c(Cl)cccc2Cl)cc2cnc(NC3CCCC3)nc21	4.71
O=C(O)c1ccccc1Nc1ccnc(Nc2cccc(F)c2)n1	7.30
Cn1c(=O)c(Oc2ccc(F)cc2F)cc2cnc(NCCCNS(C)(=O)=O)nc21	5.56

Then this molecule:
Q: Name the recorded pIC50 of the molecule listed here: `Cn1c(=O)c(Oc2c(Cl)cccc2Cl)cc2cnc(NC3CC3)nc21`
A: 4.83

---

# tgt: Death-associated protein kinase 3 (Homo sapiens) (UniProt O43293)
# Sequence (O43293 whole entry, looked up): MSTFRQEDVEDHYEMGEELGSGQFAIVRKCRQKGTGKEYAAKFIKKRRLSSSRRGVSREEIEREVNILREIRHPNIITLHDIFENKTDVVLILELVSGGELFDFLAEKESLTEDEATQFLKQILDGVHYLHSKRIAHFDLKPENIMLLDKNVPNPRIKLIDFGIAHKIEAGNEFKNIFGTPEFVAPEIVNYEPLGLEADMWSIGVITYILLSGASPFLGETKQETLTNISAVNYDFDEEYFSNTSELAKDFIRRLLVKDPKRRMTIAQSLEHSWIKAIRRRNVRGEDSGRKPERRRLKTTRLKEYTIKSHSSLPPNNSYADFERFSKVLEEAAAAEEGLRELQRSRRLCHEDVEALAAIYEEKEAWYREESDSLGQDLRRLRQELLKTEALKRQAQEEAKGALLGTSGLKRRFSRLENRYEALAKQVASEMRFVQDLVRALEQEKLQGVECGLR
# protocol_description: Inhibition of DAPK3 (unknown origin) at 10 uM
property: inhibition (%)
Numbers only, in %.

Cn1c(=O)c(Oc2ccc(F)cc2F)cc2cnc(Nc3ccc(N4CCCCC4)cc3)nc21	0
Cn1c(=O)c(Oc2c(Cl)cccc2Cl)cc2cnc(NC3CCOCC3)nc21	0
Cn1c(=O)c(Oc2ccc(F)cc2F)cc2cnc(NC3CCN(S(C)(=O)=O)CC3)nc21	2

Parameter requested: inhibition. Apply to each item below.
1. CN1CCN(CCCNc2ncc3cc(Oc4ccc(F)cc4F)c(=O)n(C)c3n2)CC1
2. Cn1c(=O)c(Oc2ccc(F)cc2F)cc2cnc(Nc3ccc(N4CCC(O)CC4)cc3)nc21

A:
1: 12; 2: 0

Parameter requested: inhibition. Apply to each item below.
1. Cn1c(=O)c(Oc2ccc(F)cc2F)cc2cnc(NCCc3ccccn3)nc21
2. CN(C)CCNc1ncc2cc(Oc3ccc(F)cc3F)c(=O)n(C)c2n1
3. CN1CCN(c2ccc(Nc3ncc4cc(Oc5ccc(F)cc5F)c(=O)n(C)c4n3)cc2)CC1
4. CN1CCN(c2ccc(Nc3ncc4cc(Oc5c(Cl)cccc5Cl)c(=O)n(C)c4n3)cc2)CC1

A:
0
0
12
15
